Target: KRAS G13C (Homo sapiens, UniProt P01116+P62937, G13C)
Sequence (P01116 1-169 isoform P01116-2 G13C limits assumed): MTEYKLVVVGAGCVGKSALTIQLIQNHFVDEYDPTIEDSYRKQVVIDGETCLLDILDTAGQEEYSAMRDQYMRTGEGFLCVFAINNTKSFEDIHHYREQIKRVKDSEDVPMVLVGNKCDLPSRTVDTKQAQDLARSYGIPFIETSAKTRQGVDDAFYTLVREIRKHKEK
Sequence (P62937 whole entry): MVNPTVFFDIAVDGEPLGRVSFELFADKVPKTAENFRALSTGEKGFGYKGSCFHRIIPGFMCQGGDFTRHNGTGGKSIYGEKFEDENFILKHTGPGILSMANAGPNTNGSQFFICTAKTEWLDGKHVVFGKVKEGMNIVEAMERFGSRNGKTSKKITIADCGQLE
Assay: Ras-Raf disruption / FRET / MOA assay (BRAF RBD)
Assay type: biochemical
Settings: Ras-Raf disruption, with Cyclophilin A; read-out: KRAS G13C FRET data IC50
Can you tell me IC50 for the items I'm about to list?

Please report the measured IC50 for "CCn1c(-c2cccnc2[C@H](C)OC)c2c3cc(ccc31)-c1cc(O)cc(c1)C[C@H](NC(=O)[C@H](C(C)C)N(C)C(=O)CC1CN(C(=O)[C@@H]3CN3)C1)C(=O)N1CCC[C@H](N1)C(=O)OCC(C)(C)C2"
10 to 100 nM

Supply recorded IC50 for CCn1c(-c2cccnc2[C@H](C)OC)c2c3cc(ccc31)-c1cc(O)cc(c1)C[C@H](NC(=O)[C@H](C(C)C)N1CCC3(CCN(C(=O)[C@@H]4CN4)C3)C1=O)C(=O)N1CCC[C@H](N1)C(=O)OCC(C)(C)C2 (some centres unmarked) here.
10 to 100 nM

Using known records, supply IC50 for CCn1c(-c2cccnc2[C@H](C)OC)c2c3cc(ccc31)-c1cc(O)cc(c1)C[C@H](NC(=O)[C@H](C(C)C)N(C)C(=O)N1CC(NC(=O)[C@@H]3CN3)C1)C(=O)N1CCC[C@H](N1)C(=O)OCC(C)(C)C2 (atropisomer, axis not shown)
10 to 100 nM

Please give measured IC50 of the following entry: CCn1c(-c2cnccc2COC)c2c3cc(ccc31)-c1cccc(c1)C[C@H](NC(=O)[C@H](C(C)C)N(C)C(=O)C1CCC(N=C=Nc3ccc(OC)cc3)C1)C(=O)N1CCC[C@H](N1)C(=O)OCC(C)(C)C2 (some centres unmarked)
> 10000 nM

Using the record for "CCn1c(-c2cccnc2[C@H](C)OC)c2c3cc(ccc31)-c1cc(O)cc(c1)C[C@H](NC(=O)[C@H](C(C)C)N(C)C(=O)c1ccc(NC(=O)[C@H]3CN3)cn1)C(=O)N1CCC[C@H](N1)C(=O)OCC(C)(C)C2" , state its measured IC50.
10 to 100 nM

Provide only the value of recorded IC50 for CCn1c(-c2cccnc2[C@H](C)OC)c2c3cc(ccc31)-c1csc(n1)C[C@H](NC(=O)[C@H](C(C)C)N(C)C(=O)N1CC[C@H](N(C)C(=O)[C@H]3CN3)C1)C(=O)N1CCC[C@H](N1)C(=O)OCC(C)(C)C2 (atropisomer, axis not shown)
100 to 1000 nM

Give the value of IC50 reported for the following: CCn1c(-c2cccnc2[C@H](C)OC)c2c3cc(ccc31)-c1csc(n1)C[C@H](NC(=O)[C@H](C(C)C)N(C)C(=O)N1CC[C@@H](N(C)C(=O)[C@@H]3CN3)C1)C(=O)N1CCC[C@H](N1)C(=O)OCC(C)(C)C2 (atropisomer, axis not shown)
100 to 1000 nM

Quick one: give measured IC50 for "CCn1c(-c2cccnc2[C@H](C)OC)c2c3cc(ccc31)-c1cccc(c1)C[C@H](NC(=O)[C@H](C(C)C)N(C)C(=O)[C@H]1C[C@H](N=C=Nc3c(C)cccc3C)C1)C(=O)N1CCC[C@H](N1)C(=O)OCC(C)(C)C2"
100 to 1000 nM
